Target or system human JAK2 (a.a. 828-1132) catalytic domain (Homo sapiens (Human)): recorded IC50 listed per item.

molecule: CN(C(=O)c1ccc(N2CC(CC#N)(n3cc(-c4ncnc5[nH]ccc45)cn3)C2)c(F)c1)C1CC1
endpoint value: ≤ 10 nM
--
molecule: C[C@H](NC(=O)c1cnc(N2CC(CC#N)(n3cc(-c4ccnc5[nH]ccc45)cn3)C2)cn1)C(F)(F)F
endpoint value: 10 to 40 nM
--
molecule: N#CCC1(n2cc(-c3ccnc4[nH]ccc34)cn2)CN(c2cnc(C(=O)N[C@@H](C3CC3)C(F)(F)F)cn2)C1
endpoint value: 10 to 40 nM

Note to self: IC50 of CC(NC(=O)c1ccc(N2CC(CC#N)(n3cc(-c4ncnc5[nH]ccc45)cn3)C2)cc1)C1CCN(C)CC1 (stereo not shown) with human JAK2 (a.a. 828-1132) catalytic domain (Homo sapiens (Human)) was 10 to 40 nM

Note to self: IC50 of `CC(C)NC(=O)c1cnc(N2CC(CC#N)(n3cc(-c4ccnc5[nH]ccc45)cn3)C2)cn1` with human JAK2 (a.a. 828-1132) catalytic domain (Homo sapiens (Human)) was 10 to 40 nM

Note to self: IC50 of `N#CCC1(n2cc(-c3ncnc4[nH]ccc34)cn2)CN(c2ccc(C(=O)N[C@@H](C3CC3)C(F)(F)F)cc2)C1` with human JAK2 (a.a. 828-1132) catalytic domain (Homo sapiens (Human)) was 10 to 40 nM

Note to self: IC50 of `CC(C)NC(=O)c1cc(F)c(N2CC(CC#N)(n3cc(-c4ncnc5[nH]ccc45)cn3)C2)cc1F` with human JAK2 (a.a. 828-1132) catalytic domain (Homo sapiens (Human)) was ≤ 10 nM

Values from patent US9611269B2
